This collection of values is drawn from patent US20170107293A1.

Target: T1, Soluble hFcγRIIB (R & D Systems) (human, UniProt P31994 46-217)
T1 construct: Bought reagent; also called hFcγRIIB fusion protein
T1 sequence (looked up): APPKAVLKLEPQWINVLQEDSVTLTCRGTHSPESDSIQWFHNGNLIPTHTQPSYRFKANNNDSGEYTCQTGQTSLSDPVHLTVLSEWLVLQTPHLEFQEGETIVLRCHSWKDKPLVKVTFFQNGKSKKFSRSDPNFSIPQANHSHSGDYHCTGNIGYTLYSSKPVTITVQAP
Experiment: SPR (Biacore T100), mAb immobilised on CM5, soluble hFcγRIIB injected, 1:1 model; column headed KD (1/s)
koff by entry:

{"columns": ["binder", "scale-unit", "koff"],
 "data": [
  ["5C04 (antibody, human IgG1, V domains shown, hFcγRIIB mAb, human IgG1 (WT); Only VH/VL tied to the clone; also called Antibody clone: 5C04) VH: EVQLLESGGGLVQPGGSLRLSCAASGFTFSNYGMHWVRQAPGKGLEWVAVISYDGSNKYYADSVKGRFTISRDNSKNTLYLQMNSLRAEDTAVYYCAREWRDAFDIWGQGTLVTVSS VL: QSVLTQPPSASGTPGQRVTISCTGSSSNIGAGYDVHWYQQLPGTAPKLLIYSDNQRPSGVPDRFSGSKSGTSASLAISGLRSEDEADYYCAAWDDSLSGSWVFGGGTKLTVLG", "s⁻¹", 0.0481],
  ["6G08 (antibody, human IgG1, V domains shown, hFcγRIIB mAb (agonistic), human IgG1 (WT); Only VH/VL tied to the clone; also called Antibody clone: 6G08) VH: EVQLLESGGGLVQPGGSLRLSCAASGFTLSSYGISWVRQAPGKGLEWVSGISGSGGNTYYADSVKGRFTISRDNSKNTLYLQMNSLRAEDTAVYYCASSVGAYANDAFDIWGQGTLVTVSS VL: QSVLTQPPSASGTPGQRVTISCTGSSSNIGAGYDVHWYQQLPGTAPKLLIYGDTNRPSGVPDRFSGSKSGTSASLAISGLRSEDEADYYCAAWDDSLNGPVFGGGTKLTVLG", "s⁻¹", 0.337],
  ["6G11 (antibody, human IgG1, V domains shown, Lead antagonistic hFcγRIIB mAb, human IgG1 (WT); Only VH/VL tied to the clone; also called Antibody clone: 6G11; WT 6G11) VH: EVQLLESGGGLVQPGGSLRLSCAASGFTFSSYGMHWVRQAPGKGLEWMAVISYDGSNKYYADSVKGRFTISRDNSKNTLYLQMNSLRAEDTAVYYCARELYDAFDIWGQGTLVTVSS VL: QSVLTQPPSASGTPGQRVTISCTGSSSNIGAGYDVHWYQQLPGTAPKLLIYADDHRPSGVPDRFSGSKSGTSASLAISGLRSEDEADYYCASWDDSQRAVIFGGGTKLTVLG", "s⁻¹", 0.182],
  ["5C05 (antibody, human IgG1, V domains shown, hFcγRIIB mAb, human IgG1 (WT); Only VH/VL tied to the clone; also called Antibody clone: 5C05) VH: EVQLLESGGGLVQPGGSLRLSCAASGFTFSTYGMHWVRQAPGKGLEWVAVISYDGSNKYYADSVKGRFTISRDNSKNTLYLQMNSLRAEDTAVYYCARENFDAFDVWGQGTLVTVSS VL: QSVLTQPPSASGTPGQRVTISCTGSSSNIGAGYDVHWYQQLPGTAPKLLIYSNSQRPSGVPDRFSGSKSGTSASLAISGLRSEDEADYYCAAWDDSLNGQVVFGGGTKLTVLG", "s⁻¹", 0.00177]
]}
